Cited source: patent US20160362487A1

measured on: T1, human IL-33 (R&D Systems, #3625-IL-010/CF) (human, UniProt O95760 112-270)
T1 construct: Commercial recombinant protein; also called hIL-33; interleukin-33
T1 sequence (looked up): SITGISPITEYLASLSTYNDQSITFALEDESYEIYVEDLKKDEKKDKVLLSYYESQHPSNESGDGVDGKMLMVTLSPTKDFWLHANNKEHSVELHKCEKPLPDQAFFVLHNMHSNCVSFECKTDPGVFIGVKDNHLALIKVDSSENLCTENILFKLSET
test description: SPR 25C pH7.4, mAb captured
Protocol: Equilibrium dissociation constants (KD values) for IL-33 binding to purified anti-IL-33 monoclonal antibodies were determined using a real-time surface plasmon resonance biosensor using a Biacore 4000 instrument. […] Association of either hIL-33 or MfIL-33-6His to the captured monoclonal antibody was monitored for 4 minutes and their dissociation in ABS-ET running buffer was monitored for 10 minutes. […]
Each entry below carries its reported t½.
Just the number please, in min, no unit attached.

Sample answers from the record:
| binder | t½ [min] |
| --- | --- |
| H4H9667P (antibody, human IgG4, V domains shown, Human IgG4 Fc (H4H)) VH: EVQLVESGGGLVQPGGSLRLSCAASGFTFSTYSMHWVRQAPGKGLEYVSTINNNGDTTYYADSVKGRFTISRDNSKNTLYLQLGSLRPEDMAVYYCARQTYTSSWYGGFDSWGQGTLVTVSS VL: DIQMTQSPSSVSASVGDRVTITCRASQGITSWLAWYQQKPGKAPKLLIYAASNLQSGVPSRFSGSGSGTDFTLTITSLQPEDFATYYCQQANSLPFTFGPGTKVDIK | 46 |
| H4H9640P (antibody, human IgG4, V domains shown, Human IgG4 Fc (H4H)) VH: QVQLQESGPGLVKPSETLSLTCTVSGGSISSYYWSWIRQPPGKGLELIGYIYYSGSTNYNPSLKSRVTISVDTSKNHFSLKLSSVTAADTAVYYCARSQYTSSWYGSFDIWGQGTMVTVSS VL: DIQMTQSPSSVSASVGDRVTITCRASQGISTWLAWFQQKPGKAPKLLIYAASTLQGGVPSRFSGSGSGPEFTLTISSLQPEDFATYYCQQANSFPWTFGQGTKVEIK | 49 |
| H4H9633P (antibody, human IgG4, V domains shown, Human IgG4 Fc (H4H)) VH: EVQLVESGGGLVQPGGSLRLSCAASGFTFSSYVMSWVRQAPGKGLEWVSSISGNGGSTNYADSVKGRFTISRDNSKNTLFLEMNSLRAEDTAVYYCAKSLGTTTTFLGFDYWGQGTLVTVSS VL: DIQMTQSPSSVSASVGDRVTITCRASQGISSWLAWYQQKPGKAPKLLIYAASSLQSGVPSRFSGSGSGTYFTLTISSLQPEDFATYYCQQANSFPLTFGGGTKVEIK | 41 |
| H4H9664P (antibody, human IgG4, V domains shown, Human IgG4 Fc (H4H)) VH: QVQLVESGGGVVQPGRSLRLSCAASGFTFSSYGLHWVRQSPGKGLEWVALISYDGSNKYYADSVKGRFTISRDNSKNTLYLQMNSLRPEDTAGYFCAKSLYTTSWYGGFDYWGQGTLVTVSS VL: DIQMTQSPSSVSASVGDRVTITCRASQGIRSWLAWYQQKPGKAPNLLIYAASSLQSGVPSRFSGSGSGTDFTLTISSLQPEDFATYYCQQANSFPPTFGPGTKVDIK | 45 |

Next up:
Noted for H4H9666P (antibody, human IgG4, V domains shown, Human IgG4 Fc (H4H)) VH: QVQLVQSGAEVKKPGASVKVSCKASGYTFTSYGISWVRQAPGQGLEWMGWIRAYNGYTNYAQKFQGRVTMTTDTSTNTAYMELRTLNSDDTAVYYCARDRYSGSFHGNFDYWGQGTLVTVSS VL: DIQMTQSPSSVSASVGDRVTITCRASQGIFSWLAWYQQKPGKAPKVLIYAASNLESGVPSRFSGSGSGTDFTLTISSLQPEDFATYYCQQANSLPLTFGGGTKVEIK : its t½ reads 41
